Quick note: these are Ki numbers for system: 5-hydroxytryptamine receptor 1A (Rattus norvegicus)
Sequence (P19327 whole entry): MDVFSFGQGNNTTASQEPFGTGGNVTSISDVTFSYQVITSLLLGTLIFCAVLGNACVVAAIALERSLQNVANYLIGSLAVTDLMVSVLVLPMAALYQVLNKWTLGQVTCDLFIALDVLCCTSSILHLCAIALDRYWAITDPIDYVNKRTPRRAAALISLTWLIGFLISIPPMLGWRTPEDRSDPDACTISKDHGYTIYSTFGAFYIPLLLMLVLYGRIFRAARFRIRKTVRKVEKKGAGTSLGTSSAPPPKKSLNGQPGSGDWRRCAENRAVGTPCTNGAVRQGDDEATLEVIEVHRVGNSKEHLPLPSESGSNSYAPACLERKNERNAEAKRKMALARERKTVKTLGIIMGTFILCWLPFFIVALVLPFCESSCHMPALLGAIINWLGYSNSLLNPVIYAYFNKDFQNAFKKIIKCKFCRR
measuredQuantity: Ki (pM)

[a] O=C(NCCCCN1CCN(c2cccc3c2OCCO3)CC1)c1ccc(F)cc1
[b] O=C1c2ccccc2C(=O)N1CCCCN1CCN(c2cccc3c2OCCO3)CC1
Input: Endpoint returns the identifier whose Ki is numerically larger, either a or b . // caller expects the label of the chosen entry
Output: a
(a: 1050 pM, b: 229 pM)

====

# measuredOn: 5-hydroxytryptamine receptor 1A (Homo sapiens)
# methodNotes: Antagonistic efficacy as adenylyl cyclase assay in CHO cells expressing human 5-HT1A receptor (experiment 1)
# Format: functional, cell-based
measuredQuantity: Efficacy (%)

[I] O=C1c2ccccc2S(=O)(=O)N1CCCCN1CCN(c2cccc3c2OCCO3)CC1
[II] O=C(NCCN1CCN(c2cccc3c2OCCO3)CC1)c1ccc(F)cc1
Input: Which one would you say has the larger Efficacy value: I , or II ? Record your answer as the label of the chosen record.
Output: I
(I: 68%, II: 0%)
